Target: Platelet-activating factor acetylhydrolase (Homo sapiens, UniProt Q13093)
Sequence (Q13093 whole entry): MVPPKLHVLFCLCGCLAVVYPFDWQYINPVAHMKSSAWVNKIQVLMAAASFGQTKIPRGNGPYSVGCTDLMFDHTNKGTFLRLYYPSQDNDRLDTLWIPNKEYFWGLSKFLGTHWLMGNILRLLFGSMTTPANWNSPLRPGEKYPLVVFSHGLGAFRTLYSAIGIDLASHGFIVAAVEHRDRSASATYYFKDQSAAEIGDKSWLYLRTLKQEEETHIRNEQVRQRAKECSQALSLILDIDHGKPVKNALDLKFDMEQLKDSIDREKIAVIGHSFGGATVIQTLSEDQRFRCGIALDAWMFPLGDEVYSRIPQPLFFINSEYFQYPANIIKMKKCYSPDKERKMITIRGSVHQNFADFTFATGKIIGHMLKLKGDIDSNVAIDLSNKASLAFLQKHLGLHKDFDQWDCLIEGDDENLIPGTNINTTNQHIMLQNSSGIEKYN
Experiment: Inhibition of human plasma Lp-PLA2 using 2- thio-PAF as substrate incubated for 20 mins prior to substrate addition measured after 1 hr

| molecule | experimental.system | IC50 |
| --- | --- | --- |
| CS(=O)(=O)Nc1cccc2c(O)cc(C(=O)NC3CCCCCCCCCCCCC3)nc12 | Platelet-activating factor acetylhydrolase (Homo sapiens, UniProt Q13093) | > 100 µM |
| CCOC(=O)COc1cc(NS(=O)(=O)c2ccc(C)cc2)c2nc(C)ccc2c1 | Platelet-activating factor acetylhydrolase (Homo sapiens, UniProt Q13093) | > 100 µM |
| COc1cc(NS(=O)(=O)c2ccc(C)cc2)c2ncccc2c1 | Platelet-activating factor acetylhydrolase (Homo sapiens, UniProt Q13093) | > 100 µM |
